Reference source for all entries: patent US9751885B2

pIC50: −log10 of the molar value. Counter-ions that a name gives are not always drawn.
For reference, pIC50 measured on MAO-A enzyme (Homo sapiens (Human)):

Please look up its pIC50: COc1ccc(F)c(CN[C@@H]2C[C@H]2c2ccc(C(=O)NCc3ccccc3)cc2)c1 (relative stereo) [Example 40, trifluoroacetate]
< 5.00

Please look up its pIC50: CN(C(=O)c1cccc([C@@H]2C[C@H]2NCC2CC2)c1)c1ccccc1 (relative stereo) [Example 80, hydrochloride]
6.05

Please look up its pIC50: O=C(NCc1ccccc1)c1ccc([C@@H]2C[C@H]2NCc2ccc(-c3cnccn3)cc2)cc1 (relative stereo) [Example 45, bis(trifluoroacetate)]
5.77

Please look up its pIC50: Cn1cc(NC(=O)c2ccc([C@@H]3C[C@H]3NCC3CC3)cc2)cn1 (relative stereo) [Example 53, dihydrochloride]
< 5.00

Please look up its pIC50: O=C(Nc1cccc(-c2ncccn2)c1)c1cccc([C@@H]2C[C@H]2NCC2CC2)c1 (relative stereo) [Example 81, dihydrochloride]
5.28

Please look up its pIC50: O=C(Nc1ccc(N2CCCC2=O)cc1)c1cccc([C@@H]2C[C@H]2NCC2CC2)c1 (relative stereo) [Example 82, hydrochloride]
< 5.00

Please look up its pIC50: N#Cc1cccc(CNC(=O)c2ccc([C@@H]3C[C@H]3NCC3CC3)cc2)c1 (relative stereo) [Example 25, trifluoroacetate]
< 5.00

Please look up its pIC50: O=C(Nc1ccc(OC(F)(F)F)cc1)c1cccc([C@@H]2C[C@H]2NCC2CC2)c1 (relative stereo) [Example 123, trifluoroacetate]
< 5.00

Please look up its pIC50: Cc1cnc(CNC(=O)c2ccc([C@@H]3C[C@H]3NCC3CC3)cc2)cn1 (relative stereo) [Example 15, bis(trifluoroacetate)]
< 5.00

Please look up its pIC50: O=C(Nc1cnn(CC2CC2)c1)c1cccc([C@@H]2C[C@H]2NCC2CC2)c1 (relative stereo) [Example 77, dihydrochloride]
< 5.00

Please look up its pIC50: O=C(Nc1ccc2ncsc2c1)c1cccc([C@@H]2C[C@H]2NCC2CC2)c1 (relative stereo) [Example 144, trifluoroacetate]
< 5.00

Please look up its pIC50: Cc1ncc(NC(=O)c2cccc([C@@H]3C[C@H]3NC3CCC(F)(F)CC3)c2)s1 (relative stereo) [Example 211, dihydrochloride]
< 5.00

###

# target or system: MAO-A enzyme (Homo sapiens (Human), UniProt P21397)
# Sequence (P21397 whole entry): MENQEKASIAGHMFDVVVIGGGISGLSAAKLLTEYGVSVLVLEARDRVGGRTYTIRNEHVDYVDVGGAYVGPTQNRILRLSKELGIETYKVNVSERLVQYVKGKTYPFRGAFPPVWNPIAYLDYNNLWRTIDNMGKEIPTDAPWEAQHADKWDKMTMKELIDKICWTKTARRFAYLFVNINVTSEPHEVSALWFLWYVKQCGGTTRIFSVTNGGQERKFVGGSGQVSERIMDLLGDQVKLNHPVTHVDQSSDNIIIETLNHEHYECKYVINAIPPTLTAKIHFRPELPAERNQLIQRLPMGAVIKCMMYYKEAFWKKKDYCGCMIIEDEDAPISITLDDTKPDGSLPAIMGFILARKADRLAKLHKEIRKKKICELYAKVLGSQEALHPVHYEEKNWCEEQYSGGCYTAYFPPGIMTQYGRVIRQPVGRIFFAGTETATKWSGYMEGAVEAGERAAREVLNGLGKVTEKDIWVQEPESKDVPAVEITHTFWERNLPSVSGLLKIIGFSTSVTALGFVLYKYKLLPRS
Structures can show the parent of a compound that is named as a salt.
measurement label: pIC50
Value format note: pIC50 is -log10 of concentration (mol/L); just state the number.

The cases that follow already have their pIC50 on record.
Please look up its pIC50: Cc1ccc(CN[C@@H]2C[C@H]2c2ccc(C(=O)NCc3ccccc3)cc2)s1 (relative stereo) [Example 48, trifluoroacetate]
5.59

Please look up its pIC50: CN(Cc1ccccc1)C(=O)c1ccc([C@@H]2C[C@H]2N)cc1 (relative stereo) [Example 9, hydrochloride]
6.92

Please look up its pIC50: COc1cc(Cl)ccc1CN[C@@H]1C[C@H]1c1ccc(C(=O)NCc2ccccc2)cc1 (relative stereo) [Example 41, trifluoroacetate]
5.18

Please look up its pIC50: O=C(NCc1cccc(Oc2ccccc2)c1)c1ccc([C@@H]2C[C@H]2NCC2CC2)cc1 (relative stereo) [Example 21, trifluoroacetate]
5.74

Please look up its pIC50: N[C@@H]1C[C@H]1c1ccc(C(=O)NCc2ccccc2)cc1 (relative stereo) [Example 2, hydrochloride]
7.00

Please look up its pIC50: CN(Cc1ccccc1)C(=O)c1ccc([C@@H]2C[C@H]2NCC2CC2)cc1 (relative stereo) [Example 10, hydrochloride]
5.15

Please look up its pIC50: O=C(NCc1ccccc1)c1ccc([C@@H]2C[C@H]2NCc2ccc(C(F)(F)F)cc2)cc1 (relative stereo) [Example 38, trifluoroacetate]
5.66

// below: pIC50 requested for another compound
Please look up its pIC50: N[C@@H]1C[C@H]1c1ccc(C(=O)Nc2ccccc2)cc1 (relative stereo) [Example 1, hydrochloride]
7.00
